Species on record: Homo sapiens
Test: Selectivity ratio of Kinact/Ki for recombinant human PAD2 expressed in Escherichia coli BL21(DE3)pLysS to Kinact/Ki for recombinant His6-tagged PAD3 (unknown origin)
property.name: Selectivity ratio

COc1cccc2c1nc([C@H](CCCNC(=N)CF)NC(=O)c1cccc3c1C(=O)N(C(C)C)C3)n2C: 58

P = CCn1c([C@H](CCCNC(=N)CF)NC(=O)c2ccccc2C(=O)O)nc2ccccc21
Q = CCN1Cc2cccc(C(=O)N[C@@H](CCCNC(=N)CF)c3nc4c(OC)cccc4n3C)c2C1=O
R = CCn1c([C@H](CCCNC(=N)CCl)NC(=O)c2ccccc2C(=O)O)nc2ccccc21
Put the items in order so that reported Selectivity ratio rises from first to last. Give the labels in the order specified.
R, P, Q
(R: 1.6, P: 18, Q: 85)

* * *

Species: Homo sapiens
Test: Selectivity ratio of Kinact/Ki for recombinant full length N-terminal GST-tagged human PAD4 expressed in Escherichia coli Rosetta to Kinact/Ki for recombinant His6-tagged PAD3 (unknown origin)
property.name: Selectivity ratio

COc1ccc2c(c1)nc([C@H](CCCNC(=N)CF)NC(=O)c1cccc3c1C(=O)NC3)n2C: 1.2
CCN1Cc2cccc(C(=O)N[C@@H](CCCNC(=N)CCl)c3nc4c(OC)cccc4n3C)c2C1=O: 1.3
COc1cccc2c1nc([C@H](CCCNC(=N)CCl)NC(=O)c1cccc3c1C(=O)NC3)n2C: 1.3
Cn1c([C@H](CCCNC(=N)CF)NC(=O)c2cccc3c2C(=O)NC3)nc2ccccc21: 1
COc1cccc2c1nc([C@H](CCCNC(=N)CF)NC(=O)c1cccc3c1C(=O)N(C)C3)n2C: 1.1

* * *

Species: Homo sapiens
Experiment: Selectivity ratio of Kinact/Ki for recombinant human PAD2 expressed in Escherichia coli BL21(DE3)pLysS to Kinact/Ki for recombinant His6-tagged PAD3 (unknown origin)
property.name: Selectivity ratio

CC(C)n1c([C@H](CCCNC(=N)CF)NC(=O)c2cccc3c2C(=O)NC3)nc2ccccc21: 20
COc1cccc2c1nc([C@H](CCCNC(=N)CCl)NC(=O)c1cccc3c1C(=O)NC3)n2C: 3.9
COc1cccc2c1nc([C@H](CCCNC(=N)CF)NC(=O)c1cccc3c1C(=O)N(C)C3)n2C: 106

1 = COc1ccc2c(c1)nc([C@H](CCCNC(=N)CF)NC(=O)c1cccc3c1C(=O)NC3)n2C
2 = CCn1c([C@H](CCCNC(=N)CF)NC(=O)c2cccc3c2C(=O)NC3)nc2ccccc21
3 = Cn1c([C@H](CCCNC(=N)CF)NC(=O)c2cccc3c2C(=O)NC3)nc2ccccc21
4 = CCN1Cc2cccc(C(=O)N[C@@H](CCCNC(=N)CCl)c3nc4ccccc4[nH]3)c2C1=O
5 = N=C(CF)NCCC[C@H](NC(=O)c1cccc2c1C(=O)NC2)c1nc2ccccc2[nH]1
Task field, ranking: reported Selectivity ratio, descending order. Give the labels in the order specified.
1, 2, 3, 5, 4
(1: 114, 2: 56, 3: 8.9, 5: 3.3, 4: 1.5)

* * *

Species: Homo sapiens
Assay: Selectivity ratio of Kinact/Ki for recombinant His6-tagged PAD1 (unknown origin) to Kinact/Ki for recombinant His6-tagged PAD3 (unknown origin)
property.name: Selectivity ratio

N=C(CF)NCCC[C@H](NC(=O)c1cccc2c1C(=O)NC2)c1nc2ccccc2[nH]1: 24

a = CCN1Cc2cccc(C(=O)N[C@@H](CCCNC(=N)CCl)c3nc4ccccc4n3C)c2C1=O
b = COc1ccc2c(c1)nc([C@H](CCCNC(=N)CF)NC(=O)c1cccc3c1C(=O)NC3)n2C
Pick one, a or b : lowest reported Selectivity ratio. Provide the label of your selected option as the answer.
a
(a: 21, b: 121)
